System: contracted strips of the rats' arota
Experiment: relaxing potency in vitro on phenylefrine-contracted strips of rat aorta
Assay type: cell-based, rat (male Wistar)
Settings: rat thoracal aorta strips, contracted with 10^-7 M phenylefrine, cumulative concentrations, 37° C.; read-out: EC50 (concentration with which relaxation took place up to 50% of the contraction induced by 10^-7 M phenylefrine)
Property label: pEC50
Conceptually, pEC50 converts a concentration in mol/L into minus its log10.

Param readout = pEC50; param system = contracted strips of the rats' arota; param query = O=[N+]([O-])OCC(CO[N+](=O)[O-])O[N+](=O)[O-] [glyceryl trinitrate] ; response: value
8.14

---

Tested on: contracted strips of the rats' arota
Experiment: relaxing potency in vitro on phenylefrine-contracted strips of rat aorta
Assay type: cell-based, rat (male Wistar)
Conditions: Rattus norvegicus, read-out: EC50 (concentration with which relaxation took place up to 50% of the contraction induced by 10^-7 M phenylefrine)
Description: The relaxing potency of the compounds as described is tested in vitro on contracted strips of the rats' arota. Male Wistar rates (200-220 g) are killed by decapitation. The thoracal aorta is removed and is helically cut into strips (length: ±10 mm, width: ±2 mm; 4 strips per rat). […] The degree of relaxation is expressed as a percentage of the maximal contraction (=100%) reached with 10^-7 M phenylefrine. […]
We label by threshold. Values of EC50 strictly beneath 80 nM are 1. Values of 80 nM and up are 0.

Previously resolved entries follow.
1) O=[N+]([O-])OCC(CO[N+](=O)[O-])c1ccc2ccccc2c1 [Compound 10, 2-(2-naphthyl)-1,3-propanediol nitrate] : 1
2) O=[N+]([O-])OCCOC(c1ccccc1)c1ccccc1 [Compound 25, 2-diphenylmethoxyethanol nitrate] : 0
3) O=[N+]([O-])OCCc1cccc2ccccc12 [Compound 9, 2-(1-naphthyl)ethanol nitrate] : 1
4) O=[N+]([O-])O[C@@H]1CO[C@H]2[C@@H]1OC[C@@H]2OC(c1ccccc1)c1ccccc1 : 0
5) O=[N+]([O-])OC(Cc1ccccc1)Cc1ccccc1 [Compound 23, 1,3-diphenyl-2-propanol nitrate] : 0

# evaluate next
Regarding O=[N+]([O-])OCCc1ccc(CCO[N+](=O)[O-])cc1 , kindly confirm whether its EC50 is beneath 80 nM.
1

Reference source for all entries: patent US5049694A
